test system: SK-MEL-28; assay: NCI tumour cell line growth inhibition, 48 h
Calls of active or inactive are those of the source. No stated cut-off is given here; in the data, active = GI50 up to about 1.1 µM and inactive = higher.
reportedEndpoint: GI50

Below are worked cases with known answers.
INSERT INTO results (molecule, target, reportedendpoint, experimentalvalue) VALUES
  ('CN1C(=O)C(C#N)C2C[C@@]1(C)Oc1ccccc12 (stereo not given in full)', 'SK-MEL-28', 'GI50', '> 100 µM (inactive)'),
  ('CCOC(=O)NC(Nc1ccc(C)cc1)(C(F)(F)F)C(F)(F)F', 'SK-MEL-28', 'GI50', '> 100 µM (inactive)'),
  ('COc1ccc2c3c1OC1C(OC)(OC)CC4(C=C2)CN(C)CCC314 (stereo not given)', 'SK-MEL-28', 'GI50', '> 100 µM (inactive)'),
  ('O=S(=O)(O)c1cc(/N=N/c2c(O)ccc3ccccc23)c2c(S(=O)(=O)O)cccc2c1', 'SK-MEL-28', 'GI50', '> 100 µM (inactive)');

--- query ---
input: Retrieve GI50 measured for Cc1cc(N(CCC#N)CCC#N)ccc1/N=N/c1ccc(C(=O)O)cc1 and print it.
output: > 100 µM (inactive)

====

Field: GI50. Provide a value for each of the compounds that follow.
tested on: A549; experiment: NCI tumour cell line growth inhibition, 48 h
The source made the active and inactive calls. Cut-off read from the data, not from the text of the source: active = GI50 up to about 1.1 µM and inactive = higher.

Below are worked cases with known answers.
INSERT INTO measurements (smiles, reportedendpoint, experimentalvalue) VALUES
  ('COc1cccc(NC(=O)CC(=O)NN)c1', 'GI50', '> 100 µM (inactive)'),
  ('c1csc(-c2cc(-c3cccs3)c(-c3ccsc3)s2)c1', 'GI50', '> 100 µM (inactive)'),
  ('CCCc1cc2c(cc1O)CC[C@@H]1[C@@H]2CC[C@]2(C)[C@@H](O)CC[C@@H]12', 'GI50', '10.6 µM (inactive)'),
  ('COc1ccc(-c2cc(C(=O)Nc3cc(C(F)(F)F)cc(C(F)(F)F)c3)c3ccccc3n2)cc1', 'GI50', '4.71 µM (inactive)'),
  ('COC1=CC2=NCCc3n[nH]c(c32)C1=O', 'GI50', '24.3 µM (inactive)');

--- query ---
input: For A549, give the measured GI50 of the entry COC1(OC)C=CC(=O)C=C1
output: 5.85 µM (inactive)

====

test system: UACC-257; assay: NCI tumour cell line growth inhibition, 48 h
Calls of active or inactive are those of the source. Cut-off read from the data, not from the text of the source: active = GI50 up to about 1.1 µM and inactive = higher.
Pick one and only one: 1.0 for active, 0.0 for inactive

Recorded results for 5 molecules are shown here.
INSERT INTO measurements (molecule, target, grouplabel) VALUES
  ('CC[C@]1(Cc2ccc(OC)c(OC)c2)C=[N+]([O-])O[C@H](OC2CCCC2(c2ccccc2)c2ccccc2)[C@@H]1OC(=O)C(C)(C)C (stereo partly specified)', 'UACC-257', 0.0),
  ('O=S1(=O)OCCOS(=O)(=O)C1Cc1cccc2ccccc12', 'UACC-257', 0.0),
  ('CCN(CC)Cc1cc(/N=N\c2c(O)ccc3c(/N=N\c4ccc(O)c(CN(CC)CC)c4)c(O)ccc23)ccc1O', 'UACC-257', 0.0),
  ('Oc1ccc2c(c1)OCC1c3ccccc3OC21 (stereo unspecified)', 'UACC-257', 0.0),
  ('COc1ccc(-c2cc(=O)c3c(O)c(OC)c(OC)c(OC)c3o2)cc1 [GARDENIN B]', 'UACC-257', 0.0);

input: Per the records of this test, what outcome belongs to CCN(CC)CCC1CCCCN1CC(=O)N1c2ccccc2NC(=O)c2ccccc21 (stereo unspecified) ?
output: 0.0

input: Per the records of this test, what outcome belongs to CC(=O)NC1C(OCc2ccccc2)OC(CO)C(O)C1OC(C)C(=O)NC(C)C(=O)NC(CCC(=O)NCCCCNc1c2ccccc2nc2cccc([N+](=O)[O-])c12)C(N)=O (stereo unspecified) ?
output: 1.0

input: Per the records of this test, what outcome belongs to CN(C)CCn1c(=O)c2ccc(NCCNCCO)c3c(=O)c4ccccc4n(c1=O)c23 ?
output: 1.0

input: Per the records of this test, what outcome belongs to Nc1n[nH]c2c1Cc1c(n(Cc3ccc(Cl)cc3)c3ccccc13)C(=O)N2 ?
output: 0.0

input: Per the records of this test, what outcome belongs to CNC(=O)CCCNC(=O)CCCC(=O)N(C)C ?
output: 0.0

====

test system: OVCAR-4; experiment: NCI tumour cell line growth inhibition, 48 h
Calls of active or inactive are those of the source. No stated cut-off is given here; in the data, active = GI50 up to about 1.1 µM and inactive = higher.
Pick one and only one: 1.0 (active), 0.0 (inactive)

INSERT INTO results (compound, grouplabel) VALUES
  ('Nc1nc(SCc2ccccn2)c2ncn(C3CCCC3)c2n1', 0.0),
  ('CCc1cc(C)cc2[n+]1CC=C2.[O-][Cl+3]([O-])([O-])[O-]', 0.0),
  ('O=c1oc2ccc3ccccc3c2cc1-c1nc2ccccc2s1', 0.0),
  ('COC(=O)[C@@]12OC[C@]34C([C@@H](O)C1O)[C@@]1(C)CC(=O)C(O)=C(C)C1C[C@H]3OC(=O)[C@H](OC(=O)CC(C)C(F)(F)F)[C@H]42 (stereo not given in full)', 1.0);

Next, consider the following compound.
input: Per the records of this test, what outcome belongs to Cc1cccc(-c2nc3c(C(=O)NCCN(C)C)cccc3[nH]2)c1 ?
output: 1.0

====

system: OVCAR-5; test: NCI tumour cell line growth inhibition, 48 h
Activity calls are given as the source filed them. Cut-off read from the data, not from the text of the source: active = GI50 up to about 1.1 µM and inactive = higher.
reportedEndpoint: GI50

INSERT INTO results (compound, experimentalvalue) VALUES
  ('O=c1c2cc([N+](=O)[O-])ccc2oc2nc3n(c(=O)c12)CCCS3', '> 100 µM (inactive)'),
  ('O=C(CC(=O)Nc1ccccc1O)Nc1ccccc1O', '59.4 µM (inactive)'),
  ('CN1CCN(/C(N)=C(\C#N)C(=O)Nc2ccc(Cl)cc2)CC1', '> 100 µM (inactive)'),
  ('Cc1ccccc1/N=N/c1c(O)ccc2ccccc12', '> 100 µM (inactive)'),
  ('COc1cc2c(c(OC)c1OC)CCNC2C1=C(O)COC1=O (stereo unspecified)', '> 100 µM (inactive)');

--- query ---
input: Retrieve GI50 measured for CCN(CC)CCC1CCCCN1CC(=O)N1c2ccccc2NC(=O)c2ccccc21 (stereo unspecified) and print it.
output: > 100 µM (inactive)

====

test system: HOP-62; experiment: NCI tumour cell line growth inhibition, 48 h
Active and inactive are the calls of the source. Cut-off read from the data, not from the text of the source: active = GI50 up to about 1.1 µM and inactive = higher.
Pick one and only one: t for active, f for inactive

Recorded results for 6 molecules are shown here.
INSERT INTO results (molecule, grouplabel) VALUES
  ('COc1ccc(C2SC(=N)Nc3c2c(C)nn3C(=O)c2ccccc2O)cc1OC (stereo not given)', 'f'),
  ('COc1cc(Br)cc2cc(-c3cn4c(n3)sc3ccccc34)c(=O)oc12', 'f'),
  ('COc1cc(-c2cc(-c3cc([N+](=O)[O-])c(/C=N/NC(=O)c4ccncc4)o3)ccc2OC)ccc1C', 'f'),
  ('Cc1cccc(CP(Cc2cccc(C)c2)CC2(Cp3c4ccccc4c4ccccc43)COC2)c1', 'f'),
  ('COc1ccc2c3c1OC1C(OC)(OC)CC4(C=C2)CN(C)CCC314 (stereo not given)', 'f'),
  ('COc1cccc(C2c3cc4c(cc3OC(N3CCCC3)C2C)OCO4)c1O (stereo not given)', 'f');

input: Per the records of this test, what outcome belongs to CC(C)(C)C(O)CC(O)(C(F)(F)F)C(F)(F)F (stereo not given) ?
output: f

====

Field: GI50. Provide a value for each of the compounds that follow.
system: HCT-15

INSERT INTO results (compound, target, reportedendpoint, experimentalvalue) VALUES
  ('N#CC1C(=O)NC(=O)C1=O (stereo not given)', 'HCT-15', 'GI50', '> 100 µM');

Field: GI50. Fill in for each record below.
1. Cc1ccc(N2C3=C(CC4=C2CC(C)(C)CC4=O)C(=O)CC(C)(C)C3)cc1
2. Cc1[nH]c2ccccc2c1-c1cc(-c2cc(-c3c(C)[nH]c4ccccc34)nc(N)n2)nc(N)n1
3. CCOC(=O)[C@]12C(=C(c3ccccc3)O[C@H]3C=CCC[C@H]31)C(=O)C(=O)N2c1ccccc1

output:
1. > 100 µM
2. > 100 µM
3. > 100 µM

input: Retrieve GI50 measured for O=C(CC(=O)Nc1ccccc1O)Nc1ccccc1O and print it.
output: 5.68 µM

====

system: OVCAR-8; experiment: NCI tumour cell line growth inhibition, 48 h
Active and inactive are the calls of the source. Cut-off read from the data, not from the text of the source: active = GI50 up to about 1.1 µM and inactive = higher.
Pick one and only one: active, inactive

Recorded results for 6 compounds are shown here.
INSERT INTO assay_data (compound, target, grouplabel) VALUES
  ('CCN(CC)CCC1CCCCN1CC(=O)N1c2ccccc2NC(=O)c2ccccc21 (configuration not stated)', 'OVCAR-8', 'inactive'),
  ('CCOC(=O)c1sc2c(C(=O)OCC)n3ccccc3c2c1N', 'OVCAR-8', 'inactive'),
  ('CC(=O)O[C@H]1CC[C@H]2[C@@H]3CCC(C(C)=O)[C@H](C(=O)O)[C@H]3CC[C@]12C (some centres not stated)', 'OVCAR-8', 'inactive'),
  ('O=C(NCc1cccc2ccccc12)N/N=C\c1ccc(Cl)cc1', 'OVCAR-8', 'inactive'),
  ('CCN1CN(c2ccccc2)C2(CCN(CCCSc3ccc(F)cc3)CC2)C1=O', 'OVCAR-8', 'inactive'),
  ('COC(=O)CCC(=O)N1Cc2cc(C)ccc2N(C(=O)CCC(=O)OC)Cc2cc(C)ccc21', 'OVCAR-8', 'inactive');

input: Per the records of this test, what outcome belongs to N=C(N)N/N=C/c1c(-c2ccc(N)cc2)nc2sccn12 ?
output: inactive

input: Per the records of this test, what outcome belongs to CCOC(=O)Cn1c(=O)[nH]c(=O)c2[nH]cnc21 ?
output: inactive

input: Per the records of this test, what outcome belongs to c1ccncc1 ?
output: inactive

input: Per the records of this test, what outcome belongs to C=CCN(C)CN(C)c1nc(N(C)C)nc(N(C)C)n1 ?
output: inactive

input: Per the records of this test, what outcome belongs to NC(=O)c1cc2ccccc2o/c1=N/c1ccccc1 ?
output: inactive
